# Assayed System: T1, human CCR7 L325S fused to YPet (human, UniProt P32248 25-378, L325S)
# T1 construct: chemokine receptor CCR7, human (hCCR7), point mutant L325S; also called hCCR7-YPet L325S; source: HeLa, transiently transfected (pcDNA3 hCCR7-YPet L325S), on cells; not shown: YPet, C-terminal, kept
# T1 sequence (looked up): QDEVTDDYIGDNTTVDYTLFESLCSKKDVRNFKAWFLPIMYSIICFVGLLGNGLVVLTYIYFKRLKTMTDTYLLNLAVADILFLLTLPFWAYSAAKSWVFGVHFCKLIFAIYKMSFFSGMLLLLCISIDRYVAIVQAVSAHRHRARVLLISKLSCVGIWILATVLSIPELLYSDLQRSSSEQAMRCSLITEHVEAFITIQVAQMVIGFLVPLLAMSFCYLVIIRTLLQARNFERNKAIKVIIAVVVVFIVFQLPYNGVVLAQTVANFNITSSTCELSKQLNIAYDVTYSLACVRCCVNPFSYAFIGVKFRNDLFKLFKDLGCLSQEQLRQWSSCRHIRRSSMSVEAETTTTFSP
# Method Notes: flow cytometry on cells; competition: HeLa cells transiently expressing YPet-tagged CCR7 variants, 37 °C, 30 min, 25 nM CCL19-S6^649P1 with graded concentrations of native unlabelled hCCL19; MFI (binding and uptake)
# Experimental Setup: one partner purified

# Binder, Kd
records = [
    ("native human CCL19 (hCCL19), unlabelled (ligand, UniProt Q99731 22-98, looked up) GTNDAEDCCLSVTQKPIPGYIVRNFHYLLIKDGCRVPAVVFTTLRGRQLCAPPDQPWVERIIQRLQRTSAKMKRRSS", "~7 nM"),
]
